// provenance: patent US20210388087A1

Assay system: T1, Human CD137 ECD (human)
T1 construct: entry includes C-terminal His-tag and biotin acceptor peptide; also called human CD137 extracellular domain; 4-1BB
T1 sequence (chain, as listed by the source limits assumed): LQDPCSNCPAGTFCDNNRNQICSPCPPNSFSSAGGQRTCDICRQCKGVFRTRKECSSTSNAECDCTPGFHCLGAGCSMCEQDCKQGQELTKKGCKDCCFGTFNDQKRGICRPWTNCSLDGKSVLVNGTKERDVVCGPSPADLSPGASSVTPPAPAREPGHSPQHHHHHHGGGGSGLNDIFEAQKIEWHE
Experiment summary: Biacore SPR, vs parent H183/L072
Readout type: fold change of affinity (fold)
Report as a plain number; the unit fold is understood.

Worked examples, 2 binders total:
{"Binder": "H183/L072 VL V51L (antibody, name in Kabat numbering, V domains shown, Dual-Ig) VH: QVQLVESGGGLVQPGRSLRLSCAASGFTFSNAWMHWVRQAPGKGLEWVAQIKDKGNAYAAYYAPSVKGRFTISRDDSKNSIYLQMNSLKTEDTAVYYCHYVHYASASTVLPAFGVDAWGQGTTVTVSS VL: DIVMTQSPLSLPVTPGEPASISCQASQELVHMNRNTYLHWYQQKPGQAPRLLIYKLSNRFPGVPDRFSGSGSGTDFTLKISRVEAEDVGVYYCAQGTSVPFTFGQGTKLEIK", "fold change of affinity (fold)": 1.7}
{"Binder": "H183/L072 VL N28M (antibody, name in Kabat numbering, V domains shown, Dual-Ig) VH: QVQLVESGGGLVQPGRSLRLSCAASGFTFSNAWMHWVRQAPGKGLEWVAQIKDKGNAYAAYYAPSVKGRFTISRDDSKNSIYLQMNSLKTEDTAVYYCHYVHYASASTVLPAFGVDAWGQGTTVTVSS VL: DIVMTQSPLSLPVTPGEPASISCQASQELVHMMRNTYLHWYQQKPGQAPRLLIYKVSNRFPGVPDRFSGSGSGTDFTLKISRVEAEDVGVYYCAQGTSVPFTFGQGTKLEIK", "fold change of affinity (fold)": 0.4}

Challenge: Please give the measured fold change of affinity for this binder: H183/L072 VL E27aD (antibody, name in Kabat numbering, V domains shown, Dual-Ig) VH: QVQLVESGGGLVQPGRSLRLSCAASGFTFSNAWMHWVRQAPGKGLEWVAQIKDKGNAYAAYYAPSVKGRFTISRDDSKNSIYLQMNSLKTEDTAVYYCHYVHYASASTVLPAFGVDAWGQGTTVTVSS VL: DIVMTQSPLSLPVTPGEPASISCQASQDLVHMNRNTYLHWYQQKPGQAPRLLIYKVSNRFPGVPDRFSGSGSGTDFTLKISRVEAEDVGVYYCAQGTSVPFTFGQGTKLEIK
Response given: 1.1
